Consider the following compounds and their measured composite z-score readings.
- Test system: Human papillomavirus type 1a protein E7 (residues 44-93)
- Experiment: small molecules binding HPV E7 44-93 – biochemical, small-molecule microarray, residues 44-93, 635 nm fluorescence, primary screen (AID 1108);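 further: E7 fragment applied at 1 µg/mL in TBST for 1 h at 4 C; score combines spot fluorescence with its signal to noise ratio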
- Run parameters: fluorescence 635 nm, higher = more signal
Measured quantity: composite z-score

[[record]]
compound = "C=CCC(OC(C)=O)[C@@H]1[C@@H](N(Cc2cc3ccccc3o2)C(=O)c2ccc(C)cc2)c2cc(OCCCO)ccc2N1C(=O)c1ccc(-c2ccccc2)cc1 (stereo partly specified)"
measured_quantity = "composite z-score"
recorded_result = 0.182

[[record]]
compound = "COCCOC(=O)N1C(=O)[C@@]2(c3cc(C#CC4=CCCCC4)ccc31)[C@H](c1ccc(OCCO)cc1)N1[C@H](c3ccccc3)[C@H](c3ccccc3)OC(=O)[C@H]1[C@@H]2C(=O)Nc1nc2ccccc2s1"
measured_quantity = "composite z-score"
recorded_result = 1.23

[[record]]
compound = "COc1ccc([Si](C)(C)[C@@H]2[C@@H](CCO)O[C@]3(C(=O)N(Cc4ccccc4)c4ccc(N(C=O)c5ccccc5)cc43)[C@H]2C)cc1"
measured_quantity = "composite z-score"
recorded_result = -0.736

[[record]]
compound = "C=CC[C@@]1(C(=O)OC)N=C(c2ccc(OCCCO)cc2)O[C@@H]1c1ccccc1CN=[N+]=[N-]"
measured_quantity = "composite z-score"
recorded_result = 1.14

[[record]]
compound = "COc1ccc(C#Cc2ccc3c(c2)[C@]2(C(=O)N3)[C@H](C(=O)N3CCN(c4ncccn4)CC3)[C@H]3C(=O)O[C@H](c4ccccc4)[C@H](c4ccccc4)N3[C@@H]2c2ccc(O)cc2)cc1"
measured_quantity = "composite z-score"
recorded_result = 1.4

[[record]]
compound = "C=CCC(OC(C)=O)[C@@H]1[C@@H](N(Cc2ccc(-c3cccc(C(F)(F)F)c3)o2)C(=O)c2ccc(C)cc2)c2cc(OCCCO)ccc2N1C(=O)c1ccc2ccccc2n1 (stereo partly specified)"
measured_quantity = "composite z-score"
recorded_result = -0.172

[[record]]
compound = "COc1c(C)cc(-c2cc3c(c(-c4ccccc4)n2)[Si](C(C)C)(C(C)C)O[C@H]3c2ccccc2)cc1C"
measured_quantity = "composite z-score"
recorded_result = -0.217

[[record]]
compound = "COC(=O)[C@@]1(Cc2ccc(OC)cc2)[C@H]2c3cc(C(=O)N(C)C)n(CCSCCO)c3C[C@H]2CN1C(=O)c1ccccc1"
measured_quantity = "composite z-score"
recorded_result = 1.39

[[record]]
compound = "COCCOC(=O)N1C(=O)[C@@]2(c3cc(C#CCC(C(=O)OC)C(=O)OC)ccc31)[C@H](c1ccccc1OCCO)N1[C@H](c3ccccc3)[C@H](c3ccccc3)OC(=O)[C@H]1[C@@H]2C(=O)Nc1nc2ccccc2s1"
measured_quantity = "composite z-score"
recorded_result = 0.678

[[record]]
compound = "COCCCNC(=O)[C@@]1(Sc2ccc(C)cc2)CC(=O)N(Cc2ccccc2)[C@@H]1c1ccc(CO)cc1"
measured_quantity = "composite z-score"
recorded_result = 0.0655

[[record]]
compound = "C[C@H]1C2[C@H](Cc3ccccc3)NC(=O)[C@]23C(=O)N[C@H](Cc2ccccc2)C(=O)N[C@H](Cc2ccccc2)C(=O)NC/C=C/CCC/C=C/C3[C@@H]2O[C@]12C (stereo partly specified)"
measured_quantity = "composite z-score"
recorded_result = 1.39

[[record]]
compound = "O=C1c2ccccc2[C@](Cc2ccccc2I)(C(=O)O)[C@H](c2ccc(CO)cc2)N1Cc1ccccc1C(F)(F)F"
measured_quantity = "composite z-score"
recorded_result = 1.46

[[record]]
compound = "COCCOC(=O)N1C(=O)[C@@]2(c3ccccc31)[C@H](C(=O)N1CCCCCCC1)[C@H]1C(=O)O[C@H](c3ccccc3)[C@H](c3ccccc3)N1[C@@H]2c1ccccc1OCCO"
measured_quantity = "composite z-score"
recorded_result = 1.36

[[record]]
compound = "NC(=O)NCC#Cc1ccc2c(c1)[C@]1(C(=O)N2)[C@H](c2ccc(O)cc2)N2[C@H](c3ccccc3)[C@H](c3ccccc3)OC(=O)[C@H]2[C@@H]1C(=O)N1CCN(c2ncccn2)CC1"
measured_quantity = "composite z-score"
recorded_result = 0.237

[[record]]
compound = "Cc1cc(C)c(C(O)C2C=CC3C(=O)NC(=O)C3N2Nc2ccccn2)c(C)c1 (stereo unspecified)"
measured_quantity = "composite z-score"
recorded_result = 1.22

[[record]]
compound = "CC(=O)NCCCC[C@@H]1NC(=O)[C@@H]2C[C@H](C(=O)NCc3ccc(F)cc3)[C@H](c3ccc(O)cc3)N2C1=O"
measured_quantity = "composite z-score"
recorded_result = 0.0999

[[record]]
compound = "CCN(CC)c1ccc(N2CC=CC34O[C@@H]5/C=C\\CCCOC(=O)C5[C@H]3C(=O)N(CCCO)[C@@H]4C2=O)cc1 (stereo partly specified)"
measured_quantity = "composite z-score"
recorded_result = 0.941

[[record]]
compound = "O=C1C2C=CC(C(O)c3cccc4ccccc34)N(n3cnnc3)C2C(=O)N1Cc1ccccc1 (stereo unspecified)"
measured_quantity = "composite z-score"
recorded_result = 0.0125

[[record]]
compound = "COc1ccc([Si](C)(C)[C@H]2[C@H](CC(=O)N3CCC[C@H]3CO)O[C@@]3(C(=O)N(Cc4cccc(N5CCC5=O)c4)c4ccccc43)[C@@H]2C)cc1"
measured_quantity = "composite z-score"
recorded_result = 1.41

[[record]]
compound = "CC(C)C(CO)N1C(=O)[C@@H]2[C@H]3C(=O)OCC=C[C@H]3OC23C=CCN(c2ccc4ccccc4c2)C(=O)[C@@H]13 (stereo partly specified)"
measured_quantity = "composite z-score"
recorded_result = -0.177

[[record]]
compound = "O=C1c2ccccc2[C@@]2(Cc3ccccc3N(Cc3ccccc3)C2=O)[C@H](c2ccc(CO)cc2)N1Cc1ccccc1C(F)(F)F"
measured_quantity = "composite z-score"
recorded_result = -0.648

[[record]]
compound = "Cc1ccc(N2C(=O)c3ccccc3[C@@H](C(=O)NCC(C)C)[C@@H]2c2ccc(CO)cc2)nc1"
measured_quantity = "composite z-score"
recorded_result = -0.369

[[record]]
compound = "O=C1C2C=CC(C(O)CCc3ccccc3)N(Nc3ccccc3)C2C(=O)N1c1ccccc1 (stereo unspecified)"
measured_quantity = "composite z-score"
recorded_result = 0.0852

[[record]]
compound = "COCCOC(=O)N1C(=O)[C@@]2(c3cc(C#Cc4ccc(OC)cc4)ccc31)[C@H](c1ccc(OCCO)cc1)N1[C@H](c3ccccc3)[C@H](c3ccccc3)OC(=O)[C@H]1[C@@H]2C(=O)N1CCc2cc(OC)c(OC)cc2C1"
measured_quantity = "composite z-score"
recorded_result = 1.22

[[record]]
compound = "COc1cc(NN2C(C(O)c3ccccc3)C=CC3C(=O)N(c4ccccc4)C(=O)C32)cc(OC)c1OC (stereo unspecified)"
measured_quantity = "composite z-score"
recorded_result = 1.49

[[record]]
compound = "O=C(NCC(O)CO)[C@]1(CCS(=O)(=O)c2ccccc2)N=C(c2ccc(OCCCO)cc2)O[C@@H]1c1ccccc1 (stereo partly specified)"
measured_quantity = "composite z-score"
recorded_result = 0.556

